Would you mind telling me the reported growth of each entry?
# Tested on: MALME-3M melanoma
# test: NCI-60 one-dose screen, 48 h (100 = growth as untreated, 0 = no growth, -100 = all killed)
# conditions_used: 10 µM unless noted
# Method: Cells are grown in 96 well plates and exposed to the test compound for 48 hours. Compounds are tested at a single concentration, which is 10^-5 M for most compounds. The reported endpoint is percent growth (GI% or GIPRCNT), where numbers from 0 - 100% represent growth inhibition, and numbers from -100% - 0 represent cell death. For example, a value of 40 represents 60% growth inhibition. A value of 0 means no net growth occurred over the course of the experiment. […]
This is part of a sample that, as a whole, favours compounds with a hit. Of some 83,000 tested, about 20% had one in any assay.
Answers are plain numbers, in %.

COc1cc2c(=O)n(CCCN(C)C)c3c4cc5c(cc4ccc3c2cc1OC)OCO5 = 67.8
O=C1c2ccccc2CCC12OC2c1cn(-c2ccccc2)nc1-c1ccc(Cl)cc1 (stereo unspecified) = 105
CN(C)CCn1c2ccc(Br)cc2c2nc3ccccc3nc21 = 51.3
Cc1cc2c(c(C)c1Cl)C(=O)/C(=C/c1ccc(O)c(O)c1)O2 = 111
NC(=NCCCOc1ccc(F)cc1)Nc1ccc(I)cc1 = 74.6
COc1ccc(C(=O)C2C(C#N)C(C#N)C3c4ccccc4C=CN23)cc1 (stereo unspecified) = 92.1
ClC1=C(Br)C(Br)(Br)C(=C(Br)Br)C1(Br)Br = 94.1
CC(C)(C)c1cc(/C=N/NC(=O)c2ccccc2NC(=O)c2cccs2)c(O)c(C(C)(C)C)c1 = 49.6
CC(=O)Oc1ccc(/C=N/NC(N)=S)nc1 = 97.8
Cn1ccc2c1CC1CN(Cc3ccco3)C(=O)C1C2C(=O)O (stereo unspecified) = 98.5

Consider the following items and state reported growth for each.
1. OC(c1ccc(F)c(C(F)(F)F)c1)c1cnccc1NC1CCCCC1 (stereo unspecified)
2. COc1ccc2c(c1)oc1c(C)c3c(c(C)c12)C(=O)N(N)C3=O

71.8
-5.47

====

# Tested on: PC-3 prostate
# test: NCI-60 one-dose screen, 48 h
# conditions_used: 10 µM unless noted
Compounds without any hit were thinned out: in the full panel of roughly 83,000, 20% have a hit. Activity calls are given as the source filed them. How the source made its calls: active means growth percent below 10; inactive means the rest.
Allowed answers: y for active, n for inactive

C#Cc1cccc(NC(=O)Nc2cccc(NC(=O)CCl)c2)c1 = y
c1ccc(-c2c(-c3ccccc3)[n+](Cc3ccc4ccccc4c3)c(-c3cccc4ccccc34)n2Cc2ccc3ccccc3c2)cc1 = y
O=C(Cc1ccccc1)NNc1nc(Cl)nc(N2CCN(C(c3ccccc3)c3ccccc3)CC2)n1 = n
C=C1C(=O)O[C@H]2[C@H]1CC/C(COC(=O)NCc1c[nH]c3ccc(Cl)cc13)=C\CC[C@@]1(C)O[C@@H]21 = y
Cn1c(N2NC(=O)C(N=Nc3ccc(S(N)(=O)=O)cc3)C2=O)nc(-c2ccco2)c(C#N)c1=O (centres undefined) = n

Which outcome did this test record for the molecule COc1ccc2c(c1)oc1c(C)c3c(c(C)c12)C(=O)N(CCN1CCOCC1)C3=O ? n

Kindly provide the recorded test outcome for the following molecule: COc1cc(/C(C)=C(\c2ccc(Cl)cc2)c2ccc(OCCN(C)C)cc2)ccc1F n

Dear all, I need the recorded test outcome for CN(C)CCC(=O)c1ccc([N+](=O)[O-])cc1 , thank you. n

Any idea what this test logged for O=S(=O)(NCCCNc1nccc(-c2c(-c3cccc(F)c3)nc3sccn23)n1)c1cccc(F)c1 ? n

====

# Test system: SW-620 colon
# test: NCI-60 one-dose screen, 48 h
# conditions_used: 10 µM unless noted
# Description: Growth inhibition of the SW-620 human tumor cell line is measured as a screen for anti-cancer activity. Cells are grown in 96 well plates and exposed to the test compound for 48 hours. Compounds are tested at a single concentration, which is 10^-5 M for most compounds. The reported endpoint is percent growth (GI% or GIPRCNT), where numbers from 0 - 100% represent growth inhibition, and numbers from -100% - 0 represent cell death. For example, a value of 40 represents 60% growth inhibition. […]
Compounds without any hit were thinned out: in the full panel of roughly 83,000, 20% have a hit. Active and inactive are the calls of the source. How the source made its calls: active means growth percent below 10; inactive means the rest.
Classes to choose from: 1 for active, 0 for inactive

Consider the following illustrative entries.
CC1=C(C(=O)/C=C/c2c[nH]c3ccccc23)C(c2ccccc2)NC(=S)N1 (centres undefined) = 0
O=C(Nc1ccc(Cl)cc1)c1cc(NCc2cc(O)ccc2O)ccc1O = 0
O=C1c2c(c3c4cccc(F)c4[nH]c3c3ccc4ccccc4c23)C(=O)N1O = 0

Per the records of this test, what outcome belongs to C[C@H]1[C@H](C)CC[C@]2(C(=O)Nc3ccc4ncccc4c3)CC[C@]3(C)C(=CC[C@@H]4[C@@]5(C)CCCNC(C)(C)[C@@H]5CC[C@]43C)[C@H]12 ? 1

Entry COc1cc(/C=C2\COc3ccc(-c4ccccc4)cc3C2=O)cc(OC)c1 : call = ? 0

# outcome recorded in this test, key = O=C(NCCc1ccccc1)Nc1ccc2cc3ccc(NC(=O)NCCc4ccccc4)cc3nc2c1 1

Could you kindly confirm the outcome this assay logged for COc1cccc(/C=N/NC(=O)c2cnn3c2NC(c2ccccc2)C3)c1Oc1ccccc1 (centres undefined) ? 0

Lab log entry: Nc1c(S(=O)(=O)O)cc2c3c(cccc13)C(=O)OC2=O — outcome as called in the assay? 0

Hi team, can someone confirm the assay call for C=C1C(=O)O[C@H]2[C@H]1CC/C(COC(=O)NCc1c[nH]c3ccc(Cl)cc13)=C\CC[C@@]1(C)O[C@@H]21 ? 1

====

# Test system: NCI-H23 lung
# test: NCI-60 one-dose screen, 48 h (100 = growth as untreated, 0 = no growth, -100 = all killed)
# conditions_used: 10 µM unless noted
About 83,000 compounds went through this panel and 20% of them were active in at least one assay; those are over-represented in the sample as a whole. Calls of active or inactive are those of the source. How the source made its calls: active means growth percent below 10; inactive means the rest.
Exercise: state measured growth for each of the compounds provided.

For orientation, consider the following solved cases.
COc1ccc(CC(C)=C(c2ccc(OCCN3CCCCCC3)cc2)c2ccc(OCCN3CCCCCC3)cc2)cc1 = -87.9% (active)
C#Cc1cccc(NC(=O)Nc2cccc(NC(=O)CCl)c2)c1 = -82.8% [8.25 µM] (active)
CCCCCCCCOc1ccc(/C=N/Nc2cc(C)nc3ccc(Br)cc23)cc1 = 81.9% (inactive)

Hello, I would appreciate it if you could give growth for each entry below.
1. NC(=S)N1N=C(c2ccccc2)CC1c1cn(-c2ccccc2)nc1-c1ccc(OCc2ccccc2)cc1 (centres undefined)
2. CC(=O)[C@@H]1CC[C@]2(C(N)=O)CC[C@]3(C)[C@H](CC[C@@H]4[C@@]5(C)CCCNC(C)(C)[C@@H]5CC[C@]43C)[C@@H]12
3. O=C(c1ccccc1)N1N=C(c2ccc(-n3ccc(C(F)(F)F)n3)c(F)c2)CC1c1ccc[nH]1 (centres undefined)

104% (inactive)
93.7% (inactive)
104% (inactive)

====

# Test system: MCF7 breast
# test: NCI-60 one-dose screen, 48 h (100 = growth as untreated, 0 = no growth, -100 = all killed)
# conditions_used: 10 µM unless noted
This is part of a sample that, as a whole, favours compounds with a hit. Of some 83,000 tested, about 20% had one in any assay.
metric: growth (%)
Answers are plain numbers, in %.

Below are 2 compounds. Give each one its growth.
1. C=C1C(=O)O[C@H]2[C@H]1CC/C(COC(=O)NCCc1c[nH]c3ccc(OC)cc13)=C\CC[C@@]1(C)O[C@@H]21
2. C=C1C(=O)O[C@H]2[C@H]1CC/C(CNC(=O)CCc1ccc(OC)cc1)=C\CC[C@@]1(C)O[C@@H]21

26.9
33.5

====

# System: A498 renal
# test: NCI-60 one-dose screen, 48 h (100 = growth as untreated, 0 = no growth, -100 = all killed)
# conditions_used: 10 µM unless noted
This is part of a sample that, as a whole, favours compounds with a hit. Of some 83,000 tested, about 20% had one in any assay.
Decision: growth compared against 90%; not below it gives class 1, below it gives class 0.

Before answering, review these 2 worked examples.
N=C1C(c2nc3ccccc3s2)=C(O)CN1c1cc(Cl)cc(Cl)c1 = class 1
CCc1ccc(-c2cn3ccnc3c(-c3ccc4ncn(Cc5ccccc5)c4c3)n2)cc1 = class 1

Form field: growth at least 90%? Entry: Brc1ccc2[nH]cc(-c3cncn3CCc3ccccc3)c2c1 class 0

Exam item: decide whether the reported growth for COc1cc(/C=C\c2cc(OC)c(OC)c(OC)c2)cc(NC(=O)/C=C/c2cc(OC)c(OC)c(OC)c2)c1OC is at least 90%. class 0

Is the recorded value of growth equal to or greater than 90% for this molecule? CCOc1ccc(Nc2nc(-c3ccc4c(c3)NC(=O)CO4)cs2)cc1 class 1

Confirm if growth reported for the molecule COc1ccc(-c2nc([C@@H](C)Sc3nc(N)cc(N)n3)c(C)s2)cc1OCCN1CCOCC1 is 90% or above. class 0

// inclusive: growth at least 90%? input: C=CCn1c(-c2ccc(-c3nc4ccc(C)cc4[nH]3)cc2)n[nH]c1=S class 1

Tell me whether growth is at least 90% here: COc1cc(-c2n/c(=C\c3c(O)[nH]c4ccc(Cl)cc34)cc3c2=Nc2ccccc2-3)ccc1F class 1
